Molecular target: HLA-A*31:01
Test: IEDB peptide-MHC binding, purified MHC/direct/fluorescence; filed as Kd, often an IC50 or EC50 that approximates it; bounds were set here for any values at or beyond the usual limits of such assays
Conditions: source organism: Camelpox virus M-96
Measured Endpoint: Kd

Request: Kd, test system HLA-A*31:01, entry SQIETGTPF
≥ 20 µM

====

Molecular target: HLA-B*40:02
Assay: IEDB peptide-MHC binding, purified MHC/competitive/radioactivity; filed as Kd, often an IC50 or EC50 that approximates it; bounds were set here for any values at or beyond the usual limits of such assays
Details: source organism: Mammarenavirus guanaritoense
Measured Endpoint: pKd
Numbers only, as −log10 of the molar value.

Request: pKd, test system HLA-B*40:02, entry SEDGLDGFDW
4.84

====

Target: HLA-B*57:01
Experiment: IEDB peptide-MHC binding, purified MHC/competitive/fluorescence; filed as Kd, often an IC50 or EC50 that approximates it; bounds were set here for any values at or beyond the usual limits of such assays
Settings: source organism: Vibrio cholerae 2740-80
Measured Endpoint: Kd (nM)
Give bare numbers, in nM.

Name the recorded Kd for HSYLWDHQM .
54.7

====

Biological target: HLA-A*03:01
Assay: IEDB peptide-MHC binding, purified MHC/competitive/fluorescence; filed as Kd, often an IC50 or EC50 that approximates it; bounds were set here for any values at or beyond the usual limits of such assays
Details: source organism: Burkholderia pseudomallei K96243
Measured Endpoint: Kd

Name the recorded Kd for LMRRFRFTV .
≥ 20 µM

====

Target: HLA-B*07:02
Test: IEDB peptide-MHC binding, purified MHC/direct/fluorescence; filed as Kd, often an IC50 or EC50 that approximates it; bounds were set here for any values at or beyond the usual limits of such assays
Conditions: source organism: Salmonella enterica subsp. enterica serovar Typhimurium
Measured Endpoint: Kd (µM)
Give bare numbers, in µM.

Name the recorded Kd for VVPLYDTPL .
8.95

====

Target: HLA-B*44:02
Assay: IEDB peptide-MHC binding, purified MHC/direct/fluorescence; filed as Kd, often an IC50 or EC50 that approximates it; bounds were set here for any values at or beyond the usual limits of such assays
Conditions: source organism: Orthohantavirus hantanense
pKd: −log10 of the molar value.
Measured Endpoint: pKd

Name the recorded pKd for REINAHEGQ .
≤ 4.70

====

Target: HLA-A*02:01
Experiment: IEDB peptide-MHC binding, purified MHC/competitive/fluorescence; bounds were set here for any values at or beyond the usual limits of such assays
Conditions: source organism: Vaccinia virus Copenhagen
Measured Endpoint: pIC50
Answers are plain numbers, as −log10 of the molar value.

Name the recorded pIC50 for IFINKLNGA .
5.48

====

Biological target: HLA-A*26:03
Assay: IEDB peptide-MHC binding, purified MHC/direct/fluorescence; filed as Kd, often an IC50 or EC50 that approximates it; bounds were set here for any values at or beyond the usual limits of such assays
Settings: source organism: Vibrio vulnificus CMCP6
Measured Endpoint: Kd

Name the recorded Kd for VTFFCVMTY .
≥ 20 µM

====

Molecular target: HLA-A*24:03
Assay: IEDB peptide-MHC binding, purified MHC/competitive/fluorescence; filed as Kd, often an IC50 or EC50 that approximates it; bounds were set here for any values at or beyond the usual limits of such assays
Conditions: source organism: Giardia lamblia ATCC 50803
pKd: −log10 of the molar value.
For each entry below, report its pKd value.

IANTTDHFF    ≤ 4.70

Dear reader, for each entry below, please note its pKd.
1. ISKANWMTY
2. AILAGEHKC

["≤ 4.70", "≤ 4.70"]

====

Target: HLA-A*24:02
Test: IEDB peptide-MHC binding, purified MHC/direct/fluorescence; filed as Kd, often an IC50 or EC50 that approximates it; bounds were set here for any values at or beyond the usual limits of such assays
Conditions: source organism: Influenza A virus
Measured Endpoint: Kd
In your response, put the unit directly after the numeric value.

Name the recorded Kd for DWSGYSGSF .
87.5 nM

====

Target: HLA-A*01:01
Experiment: IEDB peptide-MHC binding, purified MHC/direct/fluorescence; filed as Kd, often an IC50 or EC50 that approximates it; bounds were set here for any values at or beyond the usual limits of such assays
Settings: source organism: Vibrio vulnificus
Measured Endpoint: Kd (nM)
Numbers only, in nM.

Name the recorded Kd for VTFFCVMTY .
992

====

Molecular target: HLA-A*68:02
Assay: IEDB peptide-MHC binding, purified MHC/direct/fluorescence; filed as Kd, often an IC50 or EC50 that approximates it; bounds were set here for any values at or beyond the usual limits of such assays
Settings: source organism: Vibrio parahaemolyticus RIMD 2210633
Measured Endpoint: Kd

Name the recorded Kd for SMNYPNSYK .
≥ 20 µM

====

Target: HLA-B*58:01
Test: IEDB peptide-MHC binding, purified MHC/direct/fluorescence; filed as Kd, often an IC50 or EC50 that approximates it; bounds were set here for any values at or beyond the usual limits of such assays
Settings: source organism: Yersinia pestis
pKd: −log10 of the molar value.
Measured Endpoint: pKd

Name the recorded pKd for TMPELAWAV .
≤ 4.70

====

For each entry below, report its Kd value.
Molecular target: HLA-B*39:01
Assay: IEDB peptide-MHC binding, purified MHC/direct/fluorescence; filed as Kd, often an IC50 or EC50 that approximates it; bounds were set here for any values at or beyond the usual limits of such assays
Conditions: source organism: Vibrio cholerae V52

MGMEQTMSV    ≥ 20 µM

Then there is this sequence:
Name the recorded Kd for IVKQGRDAL .
≥ 20 µM

====

Biological target: HLA-A*23:01
Assay: IEDB peptide-MHC binding, purified MHC/competitive/fluorescence; filed as Kd, often an IC50 or EC50 that approximates it; bounds were set here for any values at or beyond the usual limits of such assays
Conditions: source organism: Cryptosporidium parvum Iowa II
pKd: −log10 of the molar value.
Measured Endpoint: pKd

Name the recorded pKd for SFLHWFHHL .
≥ 10.00

====

Target: HLA-B*18:01
Assay: IEDB peptide-MHC binding, purified MHC/direct/fluorescence; filed as Kd, often an IC50 or EC50 that approximates it; bounds were set here for any values at or beyond the usual limits of such assays
Conditions: source organism: Orthohantavirus hantanense
pKd: −log10 of the molar value.
Measured Endpoint: pKd

Name the recorded pKd for REINAHEGQ .
≤ 4.70

====

Biological target: HLA-A*26:01
Assay: IEDB peptide-MHC binding, purified MHC/direct/fluorescence; filed as Kd, often an IC50 or EC50 that approximates it; bounds were set here for any values at or beyond the usual limits of such assays
Conditions: source organism: Yersinia pestis
Measured Endpoint: Kd

Name the recorded Kd for TMPELAWAV .
≥ 20 µM

====

Molecular target: HLA-C*04:01
Test: IEDB peptide-MHC binding, purified MHC/competitive/fluorescence; filed as Kd, often an IC50 or EC50 that approximates it; bounds were set here for any values at or beyond the usual limits of such assays
Details: source organism: Giardia lamblia ATCC 50803
Measured Endpoint: Kd

Name the recorded Kd for YPFHIFYPV .
≥ 5 µM

====

Target: HLA-A*23:01
Experiment: IEDB peptide-MHC binding, purified MHC/competitive/fluorescence; filed as Kd, often an IC50 or EC50 that approximates it; bounds were set here for any values at or beyond the usual limits of such assays
Settings: source organism: Vibrio vulnificus YJ016
pKd: −log10 of the molar value.
Measured Endpoint: pKd

Name the recorded pKd for LTDEQKNAV .
≤ 4.70

====

Biological target: HLA-B*57:01
Test: IEDB peptide-MHC binding, purified MHC/direct/fluorescence; filed as Kd, often an IC50 or EC50 that approximates it; bounds were set here for any values at or beyond the usual limits of such assays
Conditions: source organism: Yellow fever virus
Measured Endpoint: Kd

Name the recorded Kd for PHAATIRVL .
≥ 20 µM

====

Biological target: HLA-B*58:01
Assay: IEDB peptide-MHC binding, purified MHC/competitive/fluorescence; bounds were set here for any values at or beyond the usual limits of such assays
Conditions: source organism: Homo sapiens
pIC50: −log10 of the molar value.
Measured Endpoint: pIC50

Name the recorded pIC50 for ILNRETLLDFV .
≤ 4.70

====

Molecular target: HLA-A*31:01
Experiment: IEDB peptide-MHC binding, purified MHC/competitive/fluorescence; filed as Kd, often an IC50 or EC50 that approximates it; bounds were set here for any values at or beyond the usual limits of such assays
Conditions: source organism: Burkholderia pseudomallei 1106a
Measured Endpoint: Kd (nM)
Give bare numbers, in nM.

Request: Kd, test system HLA-A*31:01, entry RVYRRRLAQ
40.5

====

Molecular target: HLA-A*03:01
Assay: IEDB peptide-MHC binding, purified MHC/competitive/fluorescence; filed as Kd, often an IC50 or EC50 that approximates it; bounds were set here for any values at or beyond the usual limits of such assays
Settings: source organism: Vibrio cholerae 2740-80
Measured Endpoint: Kd

Name the recorded Kd for HSYLWDHQM .
≥ 20 µM
